ASSAYED_SYSTEM: Histone deacetylase 1 (Homo sapiens)
Sequence (Q13547 whole entry): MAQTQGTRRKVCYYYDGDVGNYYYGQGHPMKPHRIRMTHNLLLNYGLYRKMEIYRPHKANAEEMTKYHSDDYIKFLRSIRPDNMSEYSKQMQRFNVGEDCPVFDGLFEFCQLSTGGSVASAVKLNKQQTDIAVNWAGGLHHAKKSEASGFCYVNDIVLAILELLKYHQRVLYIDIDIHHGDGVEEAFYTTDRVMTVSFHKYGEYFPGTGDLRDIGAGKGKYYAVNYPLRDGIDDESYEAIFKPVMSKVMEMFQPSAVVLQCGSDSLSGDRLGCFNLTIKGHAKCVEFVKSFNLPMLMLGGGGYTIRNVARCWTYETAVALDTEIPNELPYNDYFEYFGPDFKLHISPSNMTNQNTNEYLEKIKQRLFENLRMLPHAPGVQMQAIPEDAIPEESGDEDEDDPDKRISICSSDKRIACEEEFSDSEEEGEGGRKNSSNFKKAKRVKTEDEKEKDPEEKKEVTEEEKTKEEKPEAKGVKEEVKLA
TEST: Inhibition of His-tagged HDAC1 (unknown origin) expressed in Escherichia coli BL21(DE3) at 10 uM after 60 mins by MALDI mass spectrometry
OBSERVED_PROPERTY: inhibition (%)

P: Nc1nc2ncc(CNc3ccc(C(=O)NCCCCCCCCCC(=O)NO)cc3)nc2c(=O)[nH]1
Q: Nc1nc2ncc(CNc3ccc(C(=O)NCCCC(=O)NO)cc3)nc2c(=O)[nH]1
Choose between P and Q : whose measured inhibition value is numerically larger? Write down the label of the entry you select.
P

---

ASSAYED_SYSTEM: Histone deacetylase 8 (Homo sapiens) (UniProt Q9BY41)
TEST: Inhibition of His-tagged HDAC8 (unknown origin) expressed in Escherichia coli BL21(DE3) at 10 uM after 60 mins by MALDI mass spectrometry
OBSERVED_PROPERTY: inhibition (%)

Nc1nc2ncc(CNc3ccc(C(=O)NCCCCCC(=O)NO)cc3)nc2c(=O)[nH]1: 41

1: Nc1nc2ncc(CNc3ccc(C(=O)NCCCCC(=O)NO)cc3)nc2c(=O)[nH]1
2: Nc1nc2ncc(CNc3ccc(C(=O)N[C@@H](CCC(=O)NCCCC(=O)Nc4cc(-c5cccs5)ccc4N)C(=O)O)cc3)nc2c(=O)[nH]1
Choose between 1 and 2 : whose measured inhibition value is numerically larger? Write down the label of the entry you select.
1
(1: 39%, 2: 23%)

---

ASSAYED_SYSTEM: Histone deacetylase 1 (Homo sapiens)
OBSERVED_PROPERTY: IC50 (nM)

Previously resolved entries follow.
Nc1nc2ncc(CNc3ccc(C(=O)N[C@@H](CCC(=O)NCCCCCCCC(=O)Nc4cc(-c5cccs5)ccc4N)C(=O)O)cc3)nc2c(=O)[nH]1: 287
Nc1nc2ncc(CNc3ccc(C(=O)NCCCCC(=O)NO)cc3)nc2c(=O)[nH]1: 6150
Nc1nc2ncc(CNc3ccc(C(=O)NCCCCCCCCC(=O)NO)cc3)nc2c(=O)[nH]1: 524

1: Nc1nc2ncc(CNc3ccc(C(=O)N[C@@H](CCC(=O)NCCCCCCCCC(=O)NO)C(=O)O)cc3)nc2c(=O)[nH]1
2: Nc1nc2ncc(CNc3ccc(C(=O)NCCCCCC(=O)NO)cc3)nc2c(=O)[nH]1
Choose between 1 and 2 : whose measured IC50 value is numerically larger? Write down the label of the entry you select.
1

---

ASSAYED_SYSTEM: Histone deacetylase 8 (Homo sapiens)
Sequence (Q9BY41 whole entry): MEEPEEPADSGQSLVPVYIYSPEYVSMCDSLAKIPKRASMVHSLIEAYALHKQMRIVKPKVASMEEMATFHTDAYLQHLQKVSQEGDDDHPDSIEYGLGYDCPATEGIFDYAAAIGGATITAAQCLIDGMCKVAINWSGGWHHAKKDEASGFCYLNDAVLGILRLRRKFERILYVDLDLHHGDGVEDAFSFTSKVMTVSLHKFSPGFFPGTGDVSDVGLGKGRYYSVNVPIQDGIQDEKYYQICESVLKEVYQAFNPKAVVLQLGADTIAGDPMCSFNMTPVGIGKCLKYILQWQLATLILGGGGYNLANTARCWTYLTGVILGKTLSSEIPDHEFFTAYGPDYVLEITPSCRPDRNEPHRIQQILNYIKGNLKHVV
pIC50: −log10 of the molar value.
OBSERVED_PROPERTY: pIC50

Nc1nc2ncc(CNc3ccc(C(=O)N[C@@H](CCC(=O)NCCCCCCC(=O)NO)C(=O)O)cc3)nc2c(=O)[nH]1: 5.62
Nc1nc2ncc(CNc3ccc(C(=O)N[C@@H](CCC(=O)NCCCCCCCC(=O)Nc4cc(-c5cccs5)ccc4N)C(=O)O)cc3)nc2c(=O)[nH]1: 5.00
Nc1nc2ncc(CNc3ccc(C(=O)NCCCCCCC(=O)NO)cc3)nc2c(=O)[nH]1: 5.97
Nc1nc2ncc(CNc3ccc(C(=O)N[C@@H](CCC(=O)NCCCCCCCC(=O)NO)C(=O)O)cc3)nc2c(=O)[nH]1: 5.63
Nc1nc2ncc(CNc3ccc(C(=O)N[C@@H](CCC(=O)NCCCCCCCCC(=O)NO)C(=O)O)cc3)nc2c(=O)[nH]1: 5.81
